# measurement-description: Reversal of ABCG2 (unknown origin)-mediated multidrug resistance in human S1-M1-80 cells assessed as effect on mitoxantrone-induced cytotoxicity by measuring mitoxantrone IC50 at 3 uM after 72 hrs by MTT assay (Rvb = 73.62 +/- 7.20 uM)
parameter-measured: pIC50
Hey, just a heads up that pIC50 is the negative log base 10 of the concentration in molar.

Task: Consider the molecule C=CC(C)(C)c1cc(/C=C/C(=O)c2ccc(O)cc2)c(OC)cc1O and give its recorded pIC50.
Output: 5.82

###

# measurement-description: Reversal of ABCG2 (unknown origin)-mediated multidrug resistance in human S1-M1-80 cells assessed as effect on topotecan-induced cytotoxicity by measuring topotecan IC50 at 1 uM after 72 hrs by MTT assay (Rvb = 10.14 +/- 2.820 uM)
parameter-measured: IC50 (nM)
Supply the numeric figure in nM, leaving out any unit text.

Task: Consider the molecule C=CC(C)(C)c1cc(/C=C/C(=O)c2ccc(O)cc2)c(OC)cc1O and give its recorded IC50.
Output: 610

###

# measurement-description: Reversal of human ABCC1-mediated multidrug resistance in HEK293/MRP1 cells assessed as effect on etoposide-induced cytotoxicity by measuring etoposide IC50 at 2 uM after 72 hrs by CCK8 assay (Rvb = 63.34 +/- 7.92 uM)
parameter-measured: IC50
Report the figure along with its unit, number first.

Task: Consider the molecule C=CC(C)(C)c1cc(/C=C/C(=O)c2ccc(O)cc2)c(OC)cc1O and give its recorded IC50.
Output: 66.7 µM

###

# measurement-description: Reversal of ABCG2 (unknown origin)-mediated multidrug resistance in human S1-M1-80 cells assessed as effect on mitoxantrone-induced cytotoxicity by measuring mitoxantrone IC50 at 2 uM after 72 hrs by MTT assay (Rvb = 73.62 +/- 7.20 uM)
parameter-measured: pIC50
Hey, just a heads up that pIC50 is the negative log base 10 of the concentration in molar.

Task: Consider the compound C=CC(C)(C)c1cc(/C=C/C(=O)c2ccc(O)cc2)c(OC)cc1O and give its recorded pIC50.
Output: 5.58

###

# measurement-description: Reversal of ABCG2 (unknown origin)-mediated multidrug resistance in human H460-MX20 cells assessed as effect on mitoxantrone-induced cytotoxicity by measuring mitoxantrone IC50 at 1 uM after 72 hrs by MTT assay (Rvb = 1160.60 +/- 365.72 nM)
parameter-measured: pIC50
Hey, just a heads up that pIC50 is the negative log base 10 of the concentration in molar.

Task: Consider the molecule C=CC(C)(C)c1cc(/C=C/C(=O)c2ccc(O)cc2)c(OC)cc1O and give its recorded pIC50.
Output: 7.07

###

# measurement-description: Reversal of human ABCG2-mediated multidrug resistance in HEK293/R482 cells assessed as effect on topotecan-induced cytotoxicity by measuring topotecan IC50 at 3 uM after 72 hrs by CCK8 assay (Rvb = 201.31 +/- 25.89 nM)
parameter-measured: IC50 (nM)
Supply the numeric figure in nM, leaving out any unit text.

Task: Consider the compound C=CC(C)(C)c1cc(/C=C/C(=O)c2ccc(O)cc2)c(OC)cc1O and give its recorded IC50.
Output: 42

###

# measurement-description: Reversal of ABCG2 (unknown origin)-mediated multidrug resistance in human S1-M1-80 cells assessed as effect on mitoxantrone-induced cytotoxicity by measuring mitoxantrone IC50 at 1 uM after 72 hrs by MTT assay (Rvb = 73.62 +/- 7.20 uM)
parameter-measured: pIC50
Hey, just a heads up that pIC50 is the negative log base 10 of the concentration in molar.

Task: Consider the compound C=CC(C)(C)c1cc(/C=C/C(=O)c2ccc(O)cc2)c(OC)cc1O and give its recorded pIC50.
Output: 5.17
